Test: ATG_Sox_CIS: Attagene CIS-FACTORIAL HepG2 Assay for human SRY-box transcription factor (SOX) (AID 2282960)
Conditions: HepG2 Attagene cis-factorial SOX reporter, mRNA; actives raise or lower the signal
Method: ATG_CIS is a cell-based, multiplexed-readout assay that uses HepG2, a human liver cell line, with measurements taken at 24 hours after chemical dosing in a 24-well plate.ATG_Sox_CIS is one of 52 assay component(s) measured or calculated from the ATG_CIS assay. […] This assay endpoint, ATG_Sox_CIS, was analyzed with bidirectional fitting relative to DMSO as the negative control and baseline of activity. […]
Active and inactive are the calls of the source. How the source made its calls: active means hit-call score of the fitted dose curve at least 0.9, where 1 is the maximum; inactive means score below 0.9.
endpoint: outcome

// known answers, use as guide
- molecule: "C[Si](C)(C)O[Si](C)(C)C"
  endpoint: "outcome"
  reported.measurement: "inactive"
- molecule: "CCCCCC(=O)CC"
  endpoint: "outcome"
  reported.measurement: "inactive"
- molecule: "COC(=O)c1cccnc1"
  endpoint: "outcome"
  reported.measurement: "inactive"
- molecule: "CN(c1nccc(=O)[nH]1)C1CCN(c2nc3ccccc3n2Cc2ccc(F)cc2)CC1"
  endpoint: "outcome"
  reported.measurement: "inactive"
- molecule: "COC(=O)c1ccc(OC)cc1"
  endpoint: "outcome"
  reported.measurement: "inactive"
- molecule: "CC(C)C[C@H](NC(=O)OCC1c2ccccc2-c2ccccc21)C(=O)O"
  endpoint: "outcome"
  reported.measurement: "inactive"

Proceed to the following item.
# outcome of C=CC(C)(O)CCC=C(C)C (configuration not stated) = inactive

----------
test: ATG_NFI_CIS: Attagene CIS-FACTORIAL HepG2 Assay for human Nuclear Factor I (NFI) (AID 2282989); settings: HepG2 cis-regulatory reporter, NFI response element transcription; actives raise or lower the signal
Activity calls are given as the source filed them. The calls were made as follows: active = hit-call score of the fitted dose curve at least 0.9, where 1 is the maximum; inactive = score below 0.9.
Respond with a class label; see 1 = active, 0 = inactive

Example cases with answers are listed next.
- compound: "CSc1c(Cl)c(Cl)c(Cl)c(Cl)c1Cl"
  group: 1
- compound: "COc1cc(CCC(C)=O)ccc1O"
  group: 0
- compound: "NC1CCCCC1N (stereo not drawn)"
  group: 0
- compound: "CC1CC(O)CC(C)(C)C1 (stereo not drawn)"
  group: 0
- compound: "CCCCCCCCC=CCCCCCCCC1=NCCN1CCO"
  group: 1
- compound: "Cc1ccc(S(=O)(=O)Oc2ccc(N=Nc3ccc(-c4ccc(N=Nc5c(O)ccc6cc(S(=O)(=O)O)cc(S(=O)(=O)O)c56)c(C)c4)cc3C)cc2)cc1"
  group: 0
- compound: "CC(=O)O[C@H]1C[C@@H]2CC[C@@]1(C)C2(C)C"
  group: 0
- compound: "CCc1cc(C(C)(C)C)c(O)c(C(C)(C)C)c1"
  group: 1
- compound: "C=C(C)C(=O)OCCOCCOCCOCCOC(=O)C(=C)C"
  group: 0
- compound: "O=[N+]([O-])c1ccc(O)cc1C(F)(F)F"
  group: 1

# outcome recorded in this test, key = CCCCCCOC(=O)C(C)C
0

# outcome recorded in this test, key = O=C1NC2NC(=O)NC2N1 (stereo not drawn)
0

# outcome recorded in this test, key = CC(C)=CCCC(C)CC(=O)O (stereo not drawn)
0

----------
test: ATG_PXRE_CIS: Attagene CIS-FACTORIAL HepG2 Assay for human Pregnane X Receptor Element (PXRE) (AID 2282957); settings: HepG2 Attagene CIS-FACTORIAL PXRE reporter, mRNA; actives raise or lower the signal
Calls of active or inactive are those of the source. Rule for the calls: active = hit-call score of the fitted dose curve at least 0.9, where 1 is the maximum; inactive = score below 0.9.
Respond with a class label; see yes (1) = active, no (0) = inactive

Example cases with answers are listed next.
- molecule: "Nc1c(S(=O)(=O)O)cc(Br)c2c1C(=O)c1ccccc1C2=O"
  group: "yes (1)"
- molecule: "Cc1cccc(Nc2ccccc2)c1"
  group: "yes (1)"
- molecule: "CC=Cc1ccc(OC)c(OC)c1"
  group: "yes (1)"
- molecule: "C=CC(=C)CCCC(C)(C)OC(C)=O"
  group: "no (0)"
- molecule: "CCCCCCCCSCCO"
  group: "yes (1)"

# outcome recorded in this test, key = C=Cc1ccncc1
yes (1)

# outcome recorded in this test, key = CS(C)=O
no (0)

# outcome recorded in this test, key = CCCC[O][Al]([O]CCCC)[O]CCCC
no (0)

----------
experiment: ATG_ISRE_CIS: Attagene CIS-FACTORIAL HepG2 Assay for human Interferon Regulatory Factor 1 (IRF1) binding to an Interferon-Stimulated Response Element (ISRE) (AID 2282948); conditions: HepG2 ISRE cis-reporter (Attagene), mRNA transcription readout; actives raise or lower the signal
Active and inactive are the calls of the source. The calls were made as follows: active = hit-call score of the fitted dose curve at least 0.9, where 1 is the maximum; inactive = score below 0.9.
Respond with a class label; see active, inactive

Example cases with answers are listed next.
- molecule: "CC1(C)C2=CCCC(C)(C)[C@]23CC[C@H]1C3"
  group: "inactive"
- molecule: "Nc1ccc(N)c2c1C(=O)c1ccccc1C2=O"
  group: "inactive"
- molecule: "CCCCC(CC)COC(C)=O (stereo unspecified)"
  group: "inactive"

# outcome recorded in this test, key = C=C(C)[C@H]1CC=C(C)C(=O)C1
inactive

# outcome recorded in this test, key = CC(C)CC(C)CC(O)CC(C)C (stereo unspecified)
inactive

# outcome recorded in this test, key = CCCCCCCCCCCCN1CCCCCC1=O
inactive

# outcome recorded in this test, key = CCCCCCCCCC(C)C=O (stereo unspecified)
inactive

# outcome recorded in this test, key = CCCCCCCCCCCC(=O)OC[C@@H](O)[C@H]1OC[C@H](O)[C@H]1O
inactive

# outcome recorded in this test, key = CCC(=O)O[C@@H]1C[C@H]2CC[C@]1(C)C2(C)C
inactive

# outcome recorded in this test, key = CC1(C)C(=O)N(Cl)C(=O)N1Br
inactive

----------
assay: ATG_ISRE_CIS: Attagene CIS-FACTORIAL HepG2 Assay for human Interferon Regulatory Factor 1 (IRF1) binding to an Interferon-Stimulated Response Element (ISRE) (AID 2282948); conditions: HepG2 ISRE cis-reporter (Attagene), mRNA transcription readout; actives raise or lower the signal
The source made the active and inactive calls. Rule for the calls: active = hit-call score of the fitted dose curve at least 0.9, where 1 is the maximum; inactive = score below 0.9.
Respond with a class label; see active, inactive

Example cases with answers are listed next.
- compound: "CN(C)C(=O)Nc1ccc(Oc2ccc(Cl)cc2)cc1"
  group: "inactive"
- compound: "CCC(C)c1cc([N+](=O)[O-])cc([N+](=O)[O-])c1OC(=O)OC(C)C (stereo not drawn)"
  group: "active"
- compound: "CN1CCOCC1"
  group: "inactive"
- compound: "CCC1(C)NC(=O)NC1=O (stereo not drawn)"
  group: "inactive"
- compound: "CCCC(=O)C(CC)Sc1ccoc1C (stereo not drawn)"
  group: "inactive"

# outcome recorded in this test, key = CCOc1ccc(NC(=O)CC(C)O)cc1 (stereo not drawn)
inactive

# outcome recorded in this test, key = CCCCCc1ccco1
inactive

# outcome recorded in this test, key = Cc1ncc[nH]1
inactive

----------
assay: BSK_CASM3C_SRB: Viability Assessment in the BioMAP Diversity Plus: CASM3C Assay (AID 2283050); conditions: primary human coronary artery smooth muscle cells;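 further: total protein by SRB staining as cytotoxicity measure in parallel cultures; cells exposed to compound for 24 h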
Calls of active or inactive are those of the source. The calls were made as follows: active = hit-call score of the fitted dose curve at least 0.9, where 1 is the maximum; inactive = score below 0.9.
endpoint: AC50

- molecule: "C[C@@H]1CCN(C(=O)[C@H](CCCN=C(N)N)NS(=O)(=O)c2cccc3c2NC[C@H](C)C3)[C@@H](C(=O)O)C1"
  AC50: "inactive"
- molecule: "C=CC(C)(O)CCC=C(C)C (centres undefined)"
  AC50: "inactive"
- molecule: "CC=Cc1ccc(OCC)c(O)c1"
  AC50: "inactive"
- molecule: "c1ccc(Oc2ccccc2)cc1"
  AC50: "inactive"

# AC50 of Clc1cc(Cl)c(-c2c(Cl)c(Cl)cc(Cl)c2Cl)cc1Cl = inactive

# AC50 of CN(C)C(=O)Nc1ccc(Oc2ccc(Cl)cc2)cc1 = inactive

# AC50 of O=C(Nc1ccc2c(O)c(N=Nc3ccc(N=Nc4ccc(S(=O)(=O)O)cc4)cc3)c(S(=O)(=O)O)cc2c1)c1ccccc1 = inactive

# AC50 of CS(=O)(=O)OCCCCOS(C)(=O)=O = inactive

# AC50 of CCC(C)c1cc([N+](=O)[O-])cc([N+](=O)[O-])c1OC(=O)OC(C)C (centres undefined) = 25.8 µM (active)

----------
read-out: Interleukin 17F (IL17F), IL17F (gene 112744); experiment: BSK_BT_xIL17F: BioMAP Diversity Plus: BT Assay for Interleukin 17F (IL17F) Biomarker Activity (AID 2284243); details: primary human B cells with PBMC
Active and inactive are the calls of the source. The calls were made as follows: active = hit-call score of the fitted dose curve at least 0.9, where 1 is the maximum; inactive = score below 0.9.
Respond with a class label; see YES = active, NO = inactive

Example cases with answers are listed next.
- smiles.structure: "C=C(C)C(=O)OCCOCCOCCOCCOC(=O)C(=C)C"
  group: "NO"
- smiles.structure: "C=C(C)C(=O)OCC(CC)(COC(=O)C(=C)C)COC(=O)C(=C)C"
  group: "YES"
- smiles.structure: "Clc1cc(Cl)c(-c2c(Cl)c(Cl)cc(Cl)c2Cl)cc1Cl"
  group: "NO"
- smiles.structure: "CCN(CC)C(=O)N(CC)CC"
  group: "NO"

# outcome recorded in this test, key = CCCCN(CCCC)C(=O)N(CCCC)CCCC
YES

# outcome recorded in this test, key = Cc1cc(CCC(=O)OCCOCCOCCOC(=O)CCc2cc(C)c(O)c(C(C)(C)C)c2)cc(C(C)(C)C)c1O
NO
